- Test system: Plasmodium falciparum
- Experimental details: NOVARTIS: Inhibition of Plasmodium falciparum W2 (drug-resistant) proliferation in erythrocyte-based infection assay
- Format: functional, organism-based
- Test context: Plasmodium falciparum, W2; read-out: EC50
Quantity: pEC50
Lab note: report pEC50 as minus log10 of the concentration in molar units, number only.

Write down the reported pEC50 of CCC(C)OC(=O)C1=C(C)NC2=C(C(=O)CC(c3ccc(Cl)cc3)C2)C1c1cccc(O)c1 (configuration not stated) , test system: Plasmodium falciparum. 6.83

Do the same for COC(=O)C1=CNC=C(C(=O)OC)C1c1cc(OC)c(OC)cc1OC please 6.61

Do the same for c1ccc(-c2ccc(-c3ccccn3)nc2)nc1 please 6.85

Do the same for CCCCCOC(=O)C1=C(C)NC2=C(C(=O)CC(C)(C)C2)C1c1ccncc1 (configuration not stated) please 5.73

Do the same for CCCCNC(=S)N(Cc1cccs1)Cc1cc2cc(C)ccc2[nH]c1=O please 6.53

Do the same for CC(=O)NC1=NN(C(C)=O)C(c2ccc(Br)cc2)S1 (configuration not stated) please 6.01

Do the same for CC[n+]1c(C=Cc2ccc(C)cc2)ccc2ccccc21 please 5.57

Do the same for OC(c1cc(C(F)(F)F)nc2c(C(F)(F)F)cccc12)C1CCCCN1 (configuration not stated) please 8.09

Do the same for COc1ccc(CC(=O)Nc2sc3c(c2C(=O)Nc2cccc4ccccc24)CCCC3)cc1 please 5.95

Do the same for Cc1ccc(Nc2nc(NCc3ccccc3)c3ccccc3n2)cc1 please 6.62

Do the same for CCN1CCN(c2cc(C)c3cc(NC(=O)c4cc(OC)cc(OC)c4)ccc3n2)CC1 please 6.23

Do the same for O=C(NNC(=O)c1csnn1)c1ccc(Cl)cc1 please 5.89

Do the same for Cc1noc(-c2ccc(O)cc2O)c1-c1ccc2c(c1)OCCCO2 please 6.68

Do the same for Cc1ccc(NC(=O)C2c3ccccc3C(=O)N(CC(C)C)C2c2cccs2)c(Cl)c1 (configuration not stated) please 6.72

Do the same for CC(C)(C)OC(=O)N1CCC(c2c(C(=O)Nc3cccc(C(F)(F)F)c3)cnn2-c2ccc(F)cc2F)CC1 please 6.00

Do the same for COc1ccc(-c2csc(NC(=O)COc3ccccc3Cl)n2)cc1Br please 6.54

Do the same for CCCCN(CCCC)S(=O)(=O)c1ccc(NC(=O)c2ccco2)cc1 please 6.20

Do the same for Cc1nc([P+](c2ccccc2)(c2ccccc2)c2ccccc2)c(N2CCCCC2)o1 please 6.01

Do the same for CCC(CO)NCC(O)Cn1c2ccc(Br)cc2c2cc(Br)ccc21 (configuration not stated) please 6.90

Do the same for c1csc(CN2CCc3nc(N4CCCCC4)sc3C2)c1 please 6.35

Do the same for O=C(Oc1ccc(-c2ccc(OC(=O)c3ccco3)cc2)cc1)c1ccco1 please 6.01

====

- Tested on: Plasmodium falciparum
- Experimental details: NOVARTIS: Inhibition of Plasmodium falciparum 3D7 (drug-susceptible) proliferation in erythrocyte-based infection assay
- Format: functional, organism-based
- Test context: Plasmodium falciparum, 3D7
Task for the reader: assign each of the following molecules its reported EC50.
Numbers only here, please. The scale is nM.

I am curious: what EC50 value has been reported for COc1ccc(NC(=O)C2=C(C)Nc3c(C(=O)Nc4ccc(C)cc4)cnn3C2c2cccc(Cl)c2)cc1 (stereo not given) ? 2510

Do the same for CC(C)c1ccc2c(c1)c1c3c([n+](C)ccn32)CCC1 please 1720

Do the same for OC1(c2cccc3ccccc23)CCN(Cc2ccccc2)C1 (stereo not given) please 457

Do the same for CC1=CC(=Cc2sc3ccccc3[n+]2C)C=C(C)O1 please 31.3

Do the same for COc1ccc(-c2c[n+](CC(=O)c3ccc([N+](=O)[O-])cc3)c3n2CCC3)cc1 please 518

====

- Tested on: Plasmodium falciparum
- Experimental details: NOVARTIS: Inhibition of Plasmodium falciparum W2 (drug-resistant) proliferation in erythrocyte-based infection assay
- Type: functional, organism-based
- Test context: Plasmodium falciparum, W2; read-out: EC50
Quantity: EC50 (nM)
Numbers only here, please. The scale is nM.

I am curious: what EC50 value has been reported for C#CCN1c2ccccc2Sc2cccnc21 ? 321

Do the same for O=[N+]([O-])c1ccc(S(=O)(=O)N2CCN(C(=S)NCC3CCCO3)CC2)cc1 (stereo not given) please 101

Do the same for Oc1cccc(-c2cncc(-c3cccnc3)n2)c1 please 1290

Do the same for CC1CC2CCC(O2)C(C)C(=O)O[C@H](C)CC2CCC(O2)C(C)C(=O)OC(C)CC2CCC(O2)C(C)C(=O)O[C@H](C)CC2CCC(O2)C(C)C(=O)O1 (stereo not given in full) please 699

Do the same for CCc1nc(N)nc(N)c1-c1ccc(Cl)cc1 [PYRIMETHAMINE] please 14.6

Do the same for c1ccc2c(NCCc3c[nH]cn3)c3ccccc3nc2c1 please 2460

Do the same for O=C(NC1CCN(CC(O)CN(Cc2ccccc2)S(=O)(=O)c2ccccc2)C1)C1CCCCC1 (stereo not given) please 116

Do the same for CCN(CC)CCCC(C)Nc1ccnc2cc3ccccc3cc12 (stereo not given) please 933

====

- Experimental details: NOVARTIS: Cytotoxicity against human hepatocellular carcinoma cell line (Huh7)
- Assay type: toxicity, cell-based, Huh-7
- Test context: Huh7 cells (hepatocellular carcinoma cell line)
Task for the reader: assign each of the following compounds its reported CC50.

I am curious: what CC50 value has been reported for O=C1CSc2ccccc2N1 ? > 100 µM

Do the same for COc1ccc(C(=O)C[n+]2cc(-c3ccc(OC)cc3)n3c2CCC3)cc1 please > 100 µM

Do the same for CCN1CCC(N2CCC(n3c(Cc4ccccc4OC)nc4cc(F)ccc43)CC2)CC1 please 37.7 µM

Do the same for CCCCC(CC)C(=O)N1CCN(C(C)c2nc3ccc(Cl)cc3c(=O)n2C)CC1 (stereo not drawn) please > 10 µM

Do the same for O=C(c1ccncc1)N1N=C(C(F)(F)F)CC1(O)c1cccc([N+](=O)[O-])c1 (stereo not drawn) please > 10 µM

Do the same for CC1Cc2ccc(F)cc2CN1C(=O)c1ccc(COc2ccccc2Br)o1 (stereo not drawn) please > 100 µM

Do the same for CC(=O)N(C1=C(N2CCOCC2)C(=O)c2ccccc2C1=O)c1ccc(I)cc1 please 10 µM

Do the same for CCCCOc1ccc(C=CC(=O)NCc2ccco2)cc1 please > 100 µM

Do the same for Cc1ccc2c(C)nc(Nc3nc(C)cc(-c4ccccc4)n3)nc2c1 please > 100 µM

Do the same for CC(C)(C)c1ccc(C=CC(=O)NCc2ccco2)cc1 please 1.14 µM

Do the same for CN1CCN(c2cc(-c3ccncc3)nc(-c3cccnc3)n2)CC1 please > 10 µM

Do the same for COc1cc(O)c2c(=O)cc(CCOC(=O)Nc3ccccc3)[nH]c2c1 please > 10 µM

Do the same for CCCCc1ccc(Nc2ncnc3sc4c(c23)CCCC4)cc1 please > 100 µM

Do the same for COc1ccc(C(=O)N(C)CCCNc2ccnc3cc(Cl)ccc23)cc1 please > 10 µM

Do the same for Cc1ccc(N=C2S/C(=C\c3ccccc3)C(=O)N2c2ccc(C)cc2)cc1 please > 10 µM

Do the same for CC1=C(CC(=O)c2ccccc2)C(=O)c2ccccc2C1=O please 13.8 µM

Do the same for COc1ccc(OC)c(-c2ccc(O)c(CNCCc3ccc(Cl)cc3)c2)c1 please > 10 µM

Do the same for Cc1ccc(NC(=O)N(CCCN(C)C)Cc2cc3cc4c(cc3[nH]c2=O)OCO4)cc1 please > 100 µM

Do the same for Clc1ccccc1C(c1ccccc1)(c1ccccc1)n1ccnc1 please 25.8 µM

Do the same for Oc1ccccc1C=NNc1nnc2c3ccccc3n(Cc3ccccc3)c2n1 please > 10 µM

Do the same for COc1ccccc1NC(=O)CCN1CCCC(C)C1 (stereo not drawn) please > 10 µM

Do the same for Oc1cccc(-c2cncc(-c3cccnc3)n2)c1 please > 10 µM

Do the same for COCCNC(=O)[C@@H]1C[C@@H](NCCC2=C(C)CCCC2(C)C)CN1C(C)C please > 100 µM

Do the same for Cc1cccc(-n2nc(C(C)(C)C)cc2NC(=O)CN(C(=O)/C=C/c2ccccc2)C(C)C)c1C please > 10 µM

Do the same for O=C(COc1ccc(-c2ncccn2)cc1CN1CCCCCC1)NCc1ccccc1C(F)(F)F please > 10 µM

Do the same for Cc1cc(C)nc(NC(=N)Nc2cccc(O)c2)n1 please > 100 µM

Do the same for CCC1CN2CCC1CC2C(O)c1ccnc2ccccc12 (stereo not drawn) please > 100 µM

Do the same for COc1cccc2c1C(=O)C1C(O)=C3C(=C(O)C1C2=O)CC(O)(C(C)=NN=C1CC(C)(C)N(O)C(C)(C)C1)CC3OC1CC(C)(N)C(O)CO1 (stereo not drawn) please > 10 µM

Do the same for COc1ccc(CCN2CCC(Nc3nc4ccccc4n3Cc3ccc(F)cc3)CC2)cc1 please 20.9 µM

Do the same for Nc1c(Cl)c(Cl)nc(C(Cl)(Cl)Cl)c1Cl please > 100 µM

Do the same for c1ccc(Nc2ccnc(Nc3ccccc3)n2)cc1 please > 49 µM

Do the same for O=C(Nc1ccccc1)c1ccccc1OCC(O)Cn1c2ccccc2c2ccccc21 (stereo not drawn) please > 100 µM

Do the same for Cc1nc2cc(-c3ccc(Br)cc3)nn2c(O)c1C please > 100 µM

Do the same for N#CCSc1nc2ccccc2c2nc(CCc3c[nH]c4ccccc34)nn12 please 25.4 µM

Do the same for NC(=O)CSc1nnc2ccc(-c3ccc4c(c3)OCO4)nn12 please > 10 µM

Do the same for Cc1ccccc1Oc1ccc(S(=O)(=O)NC(CC(C)C)C(=O)O)cc1 (stereo not drawn) please > 10 µM

Do the same for Cc1ccc(Nc2cc(C)nc(NCc3ccccc3)n2)c(C)c1 please 6.51 µM

Do the same for CC[C@H]1CN2CCc3cc(OC)c(OC)cc3[C@@H]2C[C@@H]1C[C@H]1NCCc2cc(OC)c(OC)cc21 please 0.116 µM

Do the same for CN1CCC(NCCc2ccc(Cl)cc2)CC1 please 18.9 µM

Do the same for COc1ccc(-n2cc(-c3ccc(C)cc3)nc2SCC(=O)Nc2ccc(C)cc2)cc1 please > 10 µM

Do the same for CCN(CC)CCCNC(=S)N(Cc1cc2ccc(OC)cc2[nH]c1=O)C1CCCCC1 please 40.8 µM

Do the same for COc1ccc(C=Cc2cc[n+](C)cc2)cc1OC please > 100 µM

Do the same for Cc1c(C(=O)Nc2ccccc2)sc2ncn(Cc3ccccc3Cl)c(=O)c12 please > 100 µM
